Assignment: determine reported IC50 for the given molecules.
Test system: Human immunodeficiency virus 1
protocol: Antiviral activity against HIV1 NL4.3-Ren infected in human MT2 cells assessed as inhibition of viral growth measured 48 hrs post infection by luminometry
Assay type: functional, organism-based
measurementSetup: Human immunodeficiency virus 1, NL4.3-Ren, MT2, 48 h
Write the value in µM as a bare number.

IC50 on Human immunodeficiency virus 1 for C=C(CO)[C@@H]1CC[C@]2(C)CC[C@]3(C)[C@H](CC[C@@H]4[C@@]5(C)CCC(=O)C(C)(C)[C@@H]5[C@H](O)C[C@]43C)[C@@H]12 is 9.5

Kindly note: Human immunodeficiency virus 1, C=C(C)[C@@H]1CC[C@]2(C)CC[C@]3(C)[C@@H](CC[C@@H]4[C@@]5(C)[C@@H](O)C[C@H](O)C(C)(C)[C@@H]5CC[C@]43C)[C@@H]12 [GLOCHIDIOL] , IC50 value reported: 13.9

For C=C(C=O)[C@@H]1CC[C@]2(C)CC[C@]3(C)[C@H](CC[C@@H]4[C@@]5(C)CCC(=O)C(C)(C)[C@@H]5[C@H](O)C[C@]43C)[C@@H]12 on Human immunodeficiency virus 1, measured IC50 was 7.9

Entry C=C(C)[C@@H]1CC[C@]2(C)CC[C@]3(C)[C@H](C[C@@H](O)[C@@H]4[C@@]5(C)C=CC(=O)C(C)(C)[C@@H]5CC[C@]43C)[C@@H]12 , tested on Human immunodeficiency virus 1, has a reported IC50 of 8.7

Let me check: C=C(COC(C)=O)[C@@H]1CC[C@]2(C)CC[C@]3(C)[C@H](CC[C@@H]4[C@@]5(C)CCC(=O)C(C)(C)[C@@H]5CC[C@]43C)[C@@H]12 , system Human immunodeficiency virus 1, measured IC50 is 13.1

Reported Human immunodeficiency virus 1 IC50 for item C=C(C)[C@@H]1CC[C@]2(CO)CC[C@]3(C)[C@H](CC[C@@H]4[C@@]5(C)CC[C@@H](O)C(C)(C)[C@@H]5CC[C@]43C)[C@@H]12 [3-EPI-BETULIN] was 8.8

Simply: C=C(C)[C@@H]1CC[C@]2(COC(C)=O)CC[C@]3(C)[C@H](CC[C@@H]4[C@@]5(C)CCC(=O)C(C)(C)[C@@H]5CC[C@]43C)[C@@H]12 , Human immunodeficiency virus 1, IC50 = 13.4
